The reported measurements were obtained from PubChem BioAssay (NCI).

Test system: HOP-62 NSCLC
Assay: NCI tumour cell line growth inhibition, 48 h
reported_endpoint: TGI

// field: TGI; key: O=C(Cc1ccccc1)NN1C(=O)C(Cl)C1c1cc(Br)cc(Br)c1O (configuration not stated) ; value = 54 µM

// field: TGI; key: COc1ccc(-c2c(N)n(-c3cc(OC)cc(OC)c3)c(=O)c3cc([N+](=O)[O-])ccc23)cc1 ; value = > 100 µM

// field: TGI; key: C=C(C)[C@@H]1CC[C@]2(C)[C@H](CC=C3[C@@H]4CC(C)(C)CC[C@]4(C(=O)OC)CC[C@]32C)[C@@]1(C)CC/C(N)=N/O ; value = 20.6 µM

// field: TGI; key: CN(C)c1ccc2c(SCC(=O)OCC(=O)[C@@]3(O)CC[C@H]4[C@@H]5CCC6=CC(=O)C=C[C@]6(C)[C@H]5C(=O)C[C@@]43C)c3ccc(N(C)C)cc3nc2c1 ; value = > 100 µM

// field: TGI; key: N[C@H]1CCc2c1nc1c(c2-c2ccccc2)CC[C@@H]1N ; value = > 100 µM

// field: TGI; key: COc1ccc(/C=C2/CCOC2=O)cc1 ; value = > 100 µM

// field: TGI; key: CC(=O)[CH-]C(=O)c1ccccc1.CC(=O)[CH-]C(=O)c1ccccc1.CC(C)CCCC(C)[C@H]1CCC2[C@@H]3CCC4C[C@@H]([O-])CC[C@]4(C)C3CC[C@@]21C.CC(C)CCCC(C)[C@H]1CCC2[C@@H]3CCC4C[C@@H]([O-])CC[C@]4(C)C3CC[C@@]21C.Cl.[Ti+4] (some centres not stated) ; value = > 25 µM

// field: TGI; key: COC(=O)c1c(C(=O)OC)c(C(=O)OC)c(C(=O)OC)c1C(=O)OC ; value = > 100 µM

// field: TGI; key: CC(C)c1cccc2sc(NC(=O)C(=O)CC(=O)c3ccc(F)cc3)nc12 ; value = > 100 µM

// field: TGI; key: N#CC(C(=N/NC(N)=S)/C(=N\NC(N)=S)C(C#N)c1ccccc1)c1ccccc1 (configuration not stated) ; value = > 10 µM

// field: TGI; key: C/C=C1/CN2CC[C@@H]3c4ccccc4N4[C@H](C(=O)OC)[C@H]1C[C@H]2[C@]34/C=C/C1=COC[C@@H]2[C@H]1C[C@H]1c3c(c4ccccc4n3C)C[C@@H]2N1C ; value = 7.29 µM

// field: TGI; key: COc1ccc(-n2c(C)nc3ccc(N=Cc4ccccc4)cc3c2=O)cc1 ; value = > 100 µM

// field: TGI; key: CCCCC/C=C1\CCC(CN2CCOCC2)C1=O (configuration not stated) ; value = 54.5 µM

// field: TGI; key: CCN(CCc1ccc(F)cc1)c1ccc(CO)c(Cl)c1 ; value = 26.2 µM

// field: TGI; key: CCC(=O)NCC1(c2c[nH]c3ccccc23)SCCS1 ; value = > 100 µM

// field: TGI; key: COc1cc(CSc2ccc(O)cc2)cc(O)c1O ; value = > 100 µM

// field: TGI; key: O=c1cc(-c2ccccc2)oc2cc(OCc3cn(Cc4ccc(F)cc4)nn3)cc(O)c12 ; value = 21.7 µM

###

Test system: MALME-3M melanoma
Assay: NCI tumour cell line growth inhibition, 48 h
reported_endpoint: TGI

Bench note, MALME-3M melanoma: entry C=CC1(C)/C(=N\O)C(C)(CC)C(=O)N1O (centres undefined) , its TGI = > 100 µM

Bench note, MALME-3M melanoma: entry C=C(Cl)C(Br)(CCl)CCC(Cl)C(C)C (centres undefined) (tested in a mixture with another compound) , its TGI = 7.07 µM

Bench note, MALME-3M melanoma: entry O=C(CCNC(=O)OCc1ccccc1)OCCCNC(=O)OCc1ccccc1 , its TGI = > 100 µM

Bench note, MALME-3M melanoma: entry Cc1cc2cc(Oc3ccnc(Nc4cccc(CS(=O)(=O)NCCN(C)C)c4)n3)ccc2[nH]1 , its TGI = 10.5 µM

Bench note, MALME-3M melanoma: entry CC(=O)C1C(=O)C(=O)N(c2ccc(Cl)cc2C)C1=O (centres undefined) , its TGI = > 100 µM

Bench note, MALME-3M melanoma: entry COC(=O)C1=C(O)C(C(=O)OC)[C@@]2(O)[C@@H](C(=O)OC)C(c3ccc(OC(=O)/C(=C/c4ccccc4)c4ccccc4)cc3)C[C@@H]1[C@@H]2C(=O)OC (some centres undefined) , its TGI = > 100 µM

Bench note, MALME-3M melanoma: entry Nc1nc(SCCC/C=C/B(O)O)nc2c1ncn2C1OC(CO)C(O)C1O (centres undefined) , its TGI = > 243 µM

Bench note, MALME-3M melanoma: entry Clc1ccc(OCc2nnc(CCCCCCCCc3nnc(COc4ccc(Cl)cc4)o3)o2)cc1 , its TGI = > 100 µM

Bench note, MALME-3M melanoma: entry C/C(=C\c1ccccc1)C(O)S(=O)(=O)O (centres undefined) , its TGI = > 100 µM

###

Tested on: OVCAR-3 ovarian
Test: NCI tumour cell line growth inhibition, 48 h
Give measured GI50 for each item. Keep answers brief.

// field: GI50; key: CN1CCN(c2ccc3nc(-c4ccc5nc(-c6ccc(C(F)(F)F)cc6)[nH]c5c4)[nH]c3c2)CC1 ; value = 1.58 µM

// field: GI50; key: CC(C)NCCCNC1=C(Cl)C(=O)c2ccccc2C1=O ; value = 1.83 µM

// field: GI50; key: C=C(C)[C@@H]1CC[C@]2(C)[C@H](CC=C3[C@@H]4CC(C)(C)CC[C@]4(C(=O)OC)CC[C@]32C)[C@@]1(C)CC/C(N)=N/O ; value = 1.67 µM

// field: GI50; key: CCOc1ccccc1N=C(NC(=O)CC)SC ; value = > 100 µM

// field: GI50; key: Cc1ccc2nc(NC(=O)CSC(=S)N3CCN(Cc4ccccc4)CC3)sc2c1 ; value = > 100 µM

// field: GI50; key: C=C(C)[C@@H]1CC[C@]2(c3ncc(C)o3)CC[C@]3(C)[C@H](CC[C@@H]4[C@@](C)(CCC#N)[C@H](C(=C)C)CC[C@]43C)[C@@H]12 ; value = 4.16 µM

// field: GI50; key: Cc1ccc(NCCN(C)CC(C)O)c2c(=O)c3ccc(Cl)cc3sc12 (configuration not stated) ; value = 4.13 µM

// field: GI50; key: CC(=O)c1ccc(NCn2nc(-c3ccccc3O)oc2=S)cc1 ; value = > 100 µM

// field: GI50; key: COc1ccc(/C=C2/CCOC2=O)cc1 ; value = > 100 µM

// field: GI50; key: CC(=O)OC1C(O)COC(Oc2c(C)c3c4c(c2O)[C@@H](C)CC[C@@H]4[C@@H](C)C[C@H]3C=C(C)C)C1O (some centres not stated) ; value = 13.5 µM

// field: GI50; key: CNC1=C(Br)C(=O)C2=C(C1=O)C1C3=C(C(=O)C=CC3=O)C2c2ccccc21 (configuration not stated) ; value = 5.29 µM

// field: GI50; key: COc1cc2c(C#N)n3c(c2cc1OC)C(=O)C(c1ccccc1)Oc1ccccc1-3 (configuration not stated) ; value = 4.48 µM

// field: GI50; key: O=c1c2ccccc2c(C=NCCNCCO)c2oc3ccccc3n12 ; value = 11.7 µM

// field: GI50; key: CCCCn1c(=O)c(/C=C/C(=O)/C=C/c2ccc(O)c(OC)c2)cc2ccc(Cl)cc21 ; value = 1.7 µM

// field: GI50; key: O=C(/C=C/c1ccccc1)c1ccc(O)c(CN2CCN(c3cc4c(cc3F)c(=O)c(C(=O)O)cn4C3CC3)CC2)c1 ; value = 1.91 µM

// field: GI50; key: COc1ccc(-c2ccc(=O)oc2-c2cc(OC)c(OC)c(OC)c2)cc1O ; value = < 0.01 µM

// field: GI50; key: COc1ccc(S(=O)(=O)N2CCCCC2)cc1NC(=O)c1[nH]c(C)c2c1CCCCC2=O ; value = 2.64 µM

###

Tested on: SNB-19 CNS
Assay: NCI tumour cell line growth inhibition, 48 h
Give measured TGI for each item. Keep answers brief.
Supply the numeric figure in µM, leaving out any unit text.

// field: TGI; key: O=C(Oc1ccccc1Cl)c1cccnc1Nc1ccnc(C(F)(F)F)c1 ; value = 70.1

// field: TGI; key: O=c1cc2oc3ccc4ccccc4c3cc-2c(=O)[nH]1 ; value = 27.2

// field: TGI; key: [O-]c1c(-c2ccccc2)[se]c(-c2ccccc2)[n+]1-c1ccccc1 ; value = 20.2

// field: TGI; key: CCCCn1c(=O)c(/C=C/C(=O)/C=C/c2ccc(O)c(OC)c2)cc2ccc(Cl)cc21 ; value = 3.3

###

Tested on: OVCAR-4 ovarian
Test: NCI tumour cell line growth inhibition, 48 h
Give measured TGI for each item. Keep answers brief.

// field: TGI; key: COc1cc([C@@H]2c3cc4c(cc3[C@@H](NC(=O)c3ccc(C(C)=O)cc3)C3COC(=O)[C@@H]32)OCO4)cc(OC)c1O (stereo partly drawn) ; value = > 100 µM

// field: TGI; key: COc1ccc(-c2ccc(=O)oc2-c2cc(OC)c(OC)c(OC)c2)cc1O ; value = > 100 µM

// field: TGI; key: CNC1=C(Br)C(=O)C2=C(C1=O)C1C3=C(C(=O)C=CC3=O)C2c2ccccc21 (stereo not drawn) ; value = 4.93 µM

// field: TGI; key: C1CSCCSS[C@@H]2CCCCC2SC1 (stereo partly drawn) ; value = > 100 µM

// field: TGI; key: C[C@H](C(=O)N1C(=O)O[C@@H](c2ccccc2)[C@H]1C)[C@H](c1ccccc1)N(Cc1ccccc1)OC(=O)c1ccccc1 ; value = > 100 µM

// field: TGI; key: c1ccc(SCCP(CCP(c2ccccc2)c2ccccc2)c2ccccc2)cc1 (stereo not drawn) ; value = 97.1 µM

// field: TGI; key: Cc1c(Cl)c(S(N)(=O)=O)cc(S(N)(=O)=O)c1NC(=O)c1ccc(Cl)cc1 ; value = > 100 µM

// field: TGI; key: O=C(CCNC(=O)OCc1ccccc1)OCCCNC(=O)OCc1ccccc1 ; value = > 100 µM

// field: TGI; key: O=C(/C=C/c1ccc(O)c(O)c1)Oc1ccccc1 ; value = > 100 µM

// field: TGI; key: C[C@]1(O)CC(=O)[C@]2(O)C3=C(C=C[C@]2(O)C1)C(=O)c1c(O)cccc1C3=O ; value = 2.79 µM

// field: TGI; key: O=C(Cc1ccccc1)NN1C(=O)C(Cl)C1c1cc(Br)cc(Br)c1O (stereo not drawn) ; value = 80.4 µM

// field: TGI; key: O=C1C=CC(=O)c2c(O)c(Nc3ccc(OC(F)(F)F)cc3)c(Cl)c(O)c21 ; value = 2.98 µM

// field: TGI; key: CNC(=O)OC(C)CN1c2ccccc2Sc2ccccc21 (stereo not drawn) ; value = > 100 µM

// field: TGI; key: CC1=CC(=O)c2cccc(O)c2C1=O ; value = 3.39 µM

// field: TGI; key: COc1cc2c(C#N)n3c(c2cc1OC)C(=O)C(c1ccccc1)Oc1ccccc1-3 (stereo not drawn) ; value = > 100 µM

// field: TGI; key: CN1CCN(c2ccc3nc(-c4ccc5nc(-c6ccc(C(F)(F)F)cc6)[nH]c5c4)[nH]c3c2)CC1 ; value = 3.45 µM

// field: TGI; key: COc1ccc(OC)c(-c2cn3nc(-c4c[nH]c5ccc(Br)cc45)sc3n2)c1 ; value = 3.8 µM

// field: TGI; key: CN(C)c1ccc2c(SCC(=O)OCC(=O)[C@@]3(O)CC[C@H]4[C@@H]5CCC6=CC(=O)C=C[C@]6(C)[C@H]5C(=O)C[C@@]43C)c3ccc(N(C)C)cc3nc2c1 ; value = > 72.1 µM

// field: TGI; key: CCOP(=O)(C/C(=N/NC(C)(C)C)C(=O)Nc1nc2ccc(C)cc2s1)OCC ; value = > 100 µM

// field: TGI; key: C/C=C1/CN2CC[C@@H]3c4ccccc4N4[C@H](C(=O)OC)[C@H]1C[C@H]2[C@]34/C=C/C1=COC[C@@H]2[C@H]1C[C@H]1c3c(c4ccccc4n3C)C[C@@H]2N1C ; value = 6.88 µM

// field: TGI; key: COc1cc(C)c(N(C)C(=O)CN(C)C)cc1Nc1nc(Nc2cccc(F)c2C(N)=O)c2cc[nH]c2n1 ; value = > 25 µM

// field: TGI; key: CC(C)(C)c1ccc(NC(=O)c2cc(=O)c3ccccc3[nH]2)c(C(C)(C)C)c1O ; value = 15.7 µM

// field: TGI; key: S=c1scc(-c2ccc(Cl)cc2)n1OC1CCCC1 ; value = > 100 µM

// field: TGI; key: O=C1c2ccccc2C(=O)c2c1c(NCCNCCO)c1cc[nH]c1c2NCCNCCO ; value = 45.2 µM

// field: TGI; key: CC(=O)C1C(=O)C(=O)N(c2ccc(Cl)cc2C)C1=O (stereo not drawn) ; value = > 100 µM

// field: TGI; key: CC(C)(C)c1cc2c(OP(c3ccccc3)c3ccccc3)c(c1)Cc1cc(C(C)(C)C)cc(c1OP(c1ccccc1)c1ccccc1)Cc1cc(C(C)(C)C)cc(c1OP(c1ccccc1)c1ccccc1)Cc1cc(C(C)(C)C)cc(c1OP(c1ccccc1)c1ccccc1)C2 ; value = > 50 µM

// field: TGI; key: CCC(=O)NCC1(c2c[nH]c3ccccc23)SCCS1 ; value = > 100 µM

// field: TGI; key: CCOC(=O)c1c2ccccc2n2c(=O)n(C)nnc12 ; value = > 100 µM

// field: TGI; key: Cc1ccc(S(=O)(=O)NC(C)C(=O)O)cc1 (stereo not drawn) ; value = > 100 µM

// field: TGI; key: Cc1ccc2c(c1)C(=O)C1(C2)Cc2ccc(C)cc2C1=O ; value = > 100 µM

// field: TGI; key: C=C(C)[C@@H]1CC[C@]2(C)[C@H](CC=C3[C@@H]4CC(C)(C)CC[C@]4(C(=O)OC)CC[C@]32C)[C@@]1(C)CC/C(N)=N/O ; value = 7.23 µM

// field: TGI; key: CCCCCCCCCCSS(=O)(=O)c1ccc(C)cc1 ; value = 32 µM

// field: TGI; key: Nc1nc(Cl)cc(NCCCCO)n1 ; value = > 100 µM
